- Test system: IGROV1 ovarian
- measurement description: NCI tumour cell line growth inhibition, 48 h
Is TGI at least 4 µM? Then Met. If not, Not met.

q: Exam item: decide whether the reported TGI for C=CCn1c(=O)n(CC=C)c(=O)n(CC=C)c1=O is at least 4 µM.
a: Met

q: Exam item: decide whether the reported TGI for COC(=O)C1OC(Oc2cc(O)c3c(=O)cc(-c4ccc(O)cc4)oc3c2)C(O)C(O)C1O (stereo not given) is at least 4 µM.
a: Met

q: Exam item: decide whether the reported TGI for N#CC1(C2SCCS2=O)C2=C(C(=O)c3ccccc3C2=O)N2CCCC21 (stereo not given) is at least 4 µM.
a: Met

q: Exam item: decide whether the reported TGI for O=C(O)c1ccc(NNc2cc(=O)[nH]c(=O)[nH]2)cc1 is at least 4 µM.
a: Met

q: Exam item: decide whether the reported TGI for Cc1cc(NC(=O)c2ccc(C)c(Nc3nccc(-c4cccnc4)n3)c2)cc(-n2cnc(C)c2)c1 is at least 4 µM.
a: Met

q: Exam item: decide whether the reported TGI for O=c1[nH]c2cc(Cl)ccc2n1C1CCN(CCCC(c2ccc(F)cc2)c2ccc(F)cc2)CC1 is at least 4 µM.
a: Not met

q: Exam item: decide whether the reported TGI for C#CC(=O)Nc1cccc(Nc2nc3c(c(NCc4ccccc4)n2)CCCC3)c1 is at least 4 µM.
a: Not met

q: Exam item: decide whether the reported TGI for CN(C)C1=Nc2ccccc2C(=S)N2CSCC12 (stereo not given) is at least 4 µM.
a: Met

q: Exam item: decide whether the reported TGI for Cc1cccc(/C=N/NC(=S)NCCc2ccccn2)n1 is at least 4 µM.
a: Met

q: Exam item: decide whether the reported TGI for C/C(=N\Nc1cc(CN2CCCC2)c(-c2ccc(Cl)cc2)nn1)C(=O)O is at least 4 µM.
a: Met

* * *

Exercise: for every item that follows, state its recorded TGI.
- Test system: MDA-MB-231 breast
- measurement description: NCI tumour cell line growth inhibition, 48 h
Answer in µM, number only, no unit symbol.

q: Find the recorded TGI belonging to COc1ccc(C2C(C#N)=C(N)OC3=C2COc2ccc(F)cc23)cc1OC (stereo not given) and report it.
a: 58.8

q: Find the recorded TGI belonging to Cc1[nH]n(-c2cccc(Cl)c2)c(=O)c1/C=C1\C=Nc2ccc(Br)cc21 and report it.
a: 15.3

q: Find the recorded TGI belonging to Cc1c[n+](Cc2ccc3ccccc3c2)cn1Cc1ccc2ccccc2c1 and report it.
a: 3.24

q: Find the recorded TGI belonging to Cc1c(C2Nc3ccccc3C2C)[nH]c2ccccc12 (stereo not given) and report it.
a: 21.4

q: Find the recorded TGI belonging to CCCCCc1c(C)[nH]c(/C=C2\N=C(c3ccc[nH]3)C=C2CC)c1C and report it.
a: 0.0186

q: Find the recorded TGI belonging to Cc1cn2c(/C=C3/C(=O)Nc4ccccc43)c(-c3ccc(Cl)cc3)nc2s1 and report it.
a: 9.45

* * *

SK-MEL-5 melanoma: recorded GI50 for assorted compounds

q: What is its GI50 for SK-MEL-5 melanoma? Entry: Cc1c(C2Nc3ccccc3C2C)[nH]c2ccccc12 (configuration not stated)
a: 894 nM

q: What is its GI50 for SK-MEL-5 melanoma? Entry: O=C(N/N=C\c1cc(Br)ccc1O)c1ccncc1
a: 2600 nM

q: What is its GI50 for SK-MEL-5 melanoma? Entry: COc1ccc(-n2cc(-c3ccc(Cl)c(Cl)c3)nc2SCc2cccc(C#N)c2)cc1
a: 20200 nM

q: What is its GI50 for SK-MEL-5 melanoma? Entry: Cc1n(Cc2ccc3ccccc3c2)cc[n+]1Cc1ccc2ccccc2c1
a: 628 nM

q: What is its GI50 for SK-MEL-5 melanoma? Entry: CCN(CC)CC(C)(C)C(=O)/C=C/c1ccc(Cl)c(Cl)c1
a: 1840 nM

q: What is its GI50 for SK-MEL-5 melanoma? Entry: NC(=O)C(=CNc1nc(-c2ccc(Cl)c(Cl)c2)cs1)C(N)=O
a: 71600 nM

q: What is its GI50 for SK-MEL-5 melanoma? Entry: Nc1nc(Br)nc2c1ncn2C1CC(O)C(CO)O1 (configuration not stated)
a: 29300 nM

* * *

- Test system: OVCAR-5 ovarian
- measurement description: NCI tumour cell line growth inhibition, 48 h
property measured: log10 of TGI (log10 of the value in µM)
Hello, just confirming the data are log10 of TGI with units of µM.

q: What is its log10 of TGI for OVCAR-5 ovarian? Entry: CN(C)Cc1c[nH]c2c1C(=O)c1c(c(O)c3ccccc3c1O)C2=O
a: 1.44

q: What is its log10 of TGI for OVCAR-5 ovarian? Entry: COc1cc2cn3c4ccc(O)cc4[nH]c(=O)c3c2cc1OC
a: 0.37

q: What is its log10 of TGI for OVCAR-5 ovarian? Entry: O=c1[nH]c2cc(Cl)ccc2n1C1CCN(CCCC(c2ccc(F)cc2)c2ccc(F)cc2)CC1
a: 0.54

q: What is its log10 of TGI for OVCAR-5 ovarian? Entry: CCCS(=O)(=O)Nc1ccc(Nc2c3ccccc3nc3ccccc23)c(OC)c1
a: 1.37

q: What is its log10 of TGI for OVCAR-5 ovarian? Entry: COc1c(C)c2c(c(C)c1Cl)Oc1c(C=O)c(O)c(Cl)c(C)c1C(=O)O2
a: 1.90

* * *

- Tested on: SR leukemia
- measurement description: NCI tumour cell line growth inhibition, 48 h; in the data active means GI50 below about 0.43 µM; inactive means the rest
Respond using exactly one of the listed classes: yes (1) for active, no (0) for inactive

q: Record request — test call for CCN(CC)CCOc1ccc(/C(=C(\C)c2ccc(F)c(OC)c2)c2ccc(Cl)cc2)cc1
a: no (0)

q: Record request — test call for O=C(CCCN1CC=C(n2c(=O)[nH]c3ccccc32)CC1)c1ccc(F)cc1
a: no (0)

q: Record request — test call for Cc1[nH][nH]c(=O)c1C=Nc1ccc(-c2nc3ccccc3[nH]2)cc1
a: no (0)

q: Record request — test call for Cc1ccc(Nc2nc(N)c(C(=O)c3ccc(C#N)cc3)s2)cc1
a: yes (1)

q: Record request — test call for COc1cc2cn3c4ccc(O)cc4[nH]c(=O)c3c2cc1OC
a: yes (1)

q: Record request — test call for O=C1c2ccn(CCCCNC(CO)(CO)CO)c2C(=O)c2c1c(O)c1ccccc1c2O
a: no (0)

q: Record request — test call for O=C(N/N=C\c1cc(Br)ccc1O)c1ccncc1
a: no (0)

q: Record request — test call for COc1ccc(/C=c2/sc3n(c2=O)C(c2ccc(OC)c(OC)c2)C2=C(N=3)c3cc(F)ccc3OC2)cc1 (stereo not given)
a: no (0)

q: Record request — test call for CCN(CC)CC(C)(C)C(=O)/C=C/c1ccc(Cl)c(Cl)c1
a: no (0)

q: Record request — test call for C#C[C@]1(O)CC[C@H]2[C@@H]3CC=C4c5sc(Nc6ccccc6)nc5CC[C@]4(C)[C@H]3CC[C@@]21C
a: no (0)

* * *

- Tested on: SF-295 CNS
- measurement description: NCI tumour cell line growth inhibition, 48 h
property measured: TGI (µM)
Answer in µM, number only, no unit symbol.

q: Find the recorded TGI belonging to Cc1ccc(S(=O)(=O)C2=Cc3ccc(C(F)(F)F)cc3C2(O)c2cccc(C(F)(F)F)c2)cc1 (stereo not given) and report it.
a: 6.87

q: Find the recorded TGI belonging to Clc1ccc(-c2c(C3=NCCN3)nnn2-c2ccc(Cl)cc2)cc1 and report it.
a: 38.9

q: Find the recorded TGI belonging to CCOC(=O)C(N)CSC(=O)NC (stereo not given) and report it.
a: 592

q: Find the recorded TGI belonging to Nc1ccc(C(=O)NN2C(=O)C(Cl)C2c2ccccc2Cl)cc1 (stereo not given) and report it.
a: 12.6

q: Find the recorded TGI belonging to COC(CN(C(=O)c1ccccc1)C1CCC2(SCCS2)c2[nH]c3ccccc3c21)OC (stereo not given) and report it.
a: 13.9

q: Find the recorded TGI belonging to COc1cc(NC(C)CCCN)c2nccc(C)c2c1OC (stereo not given) and report it.
a: 32.5
